# inhibition at 1 ppm per entry
Test system: Gaeumannomyces graminis var. tritici (Ggt)
method_description: In vitro Assay: mycelial growth of Ggt on minimal media agar plates containing test compound
Assay type: cell-based
stated_conditions: Gaeumannomyces graminis; 1 ppm in minimal media agar; dark, 19-20° C., 4 to 5 days; diameter of mycelial growth; read-out: In vitro (ppm) 1, Percent Inhibition
Procedure: The test compounds (0.25 mL of an appropriate stock solution in acetone) are incorporated into 25 mL minimal media agar [(prepared by autoclaving a solution of 17.5 g Czapek Dox broth (Difco), 7.5 g purified agar or Bacto-agar (Difco), and 500 mL distilled/deionized water, and then adding 50 μL of 1 mg/mL thiamine hydrochloride and 50 μL of 1 mg/mL biotin in 5% ethanol] and plates are prepared. […]
test_readout: inhibition at 1 ppm

INSERT INTO measurements (molecule, measured_value) VALUES
  ('CCN(C(=O)c1c(Cl)cccc1[Si](C)(C)C)c1ccccc1 [Example 24]', '< 0%'),
  ('C[Si](C)(C)c1ccc(F)c([Si](C)(C)C)c1C(=O)N1CCCC1 [Example 118]', '< 0%'),
  ('CCNC(=O)c1c(C(F)(F)F)cccc1[Si](C)(C)C [Example 82]', '< 0%');

* * *

System: Gaeumannomyces graminis var. tritici (Ggt)
method_description: In vitro Assay: mycelial growth of Ggt on minimal media agar plates containing test compound
Type: cell-based
stated_conditions: Gaeumannomyces graminis; 0.1 ppm in minimal media agar; dark, 19-20° C., 4 to 5 days; diameter of mycelial growth; read-out: In vitro (ppm) 0.1, Percent Inhibition
test_readout: inhibition at 0.1 ppm (%)

INSERT INTO measurements (compound, test_readout, readout_relation, measured_value) VALUES
  ('CCNC(=O)n1cccc1[Si](C)(C)C', 'inhibition at 0.1 ppm', '<', 0),
  ('C=CCONC(=O)c1c([Si](C)(C)C)ccc(Cl)c1Cl', 'inhibition at 0.1 ppm', '<', 0),
  ('CCNC(=O)c1sc([S+](C)[O-])cc1[Si](C)(C)C (stereo not shown)', 'inhibition at 0.1 ppm', '<', 0),
  ('CCN(CC)C(=O)c1c([Si](C)(C)C)coc1[Si](C)(C)C', 'inhibition at 0.1 ppm', '<', 0),
  ('C=CCNC(=O)NC(=O)c1c(Cl)cccc1[Si](C)(C)C', 'inhibition at 0.1 ppm', '<', 0),
  ('CCN(CC)C(=O)c1c(CO)ccc(F)c1[Si](C)(C)C', 'inhibition at 0.1 ppm', '<', 0),
  ('CCNC(=O)c1c(Br)ccc(OC)c1[Si](C)(C)C', 'inhibition at 0.1 ppm', '<', 0),
  ('CCOP(=O)(OCC)N(CC)C(=O)c1c(Cl)cccc1[Si](C)(C)C', 'inhibition at 0.1 ppm', '<', 0),
  ('C[Si](C)(C)c1cccc(Cl)c1C(=O)NCCBr', 'inhibition at 0.1 ppm', '<', 0),
  ('CCNC(=O)c1cc(N)ccc1[Si](C)(C)C', 'inhibition at 0.1 ppm', '=', 16),
  ('C[Si](C)(C)c1cccc(Cl)c1C(=O)NCc1cccs1', 'inhibition at 0.1 ppm', '=', 14),
  ('CCNC(=O)Nc1c(Cl)cccc1[Si](C)(C)C', 'inhibition at 0.1 ppm', '=', 7),
  ('CCc1ccc([Si](C)(C)C)c(C(=O)N(CC)CC)c1Cl', 'inhibition at 0.1 ppm', '=', 7),
  ('C[Si](C)(C)c1cc(Cl)sc1C(=O)NCCCl', 'inhibition at 0.1 ppm', '=', 2),
  ('CCNC(=O)c1c([Si](C)(C)C)ccc(C)c1Cl', 'inhibition at 0.1 ppm', '=', 88),
  ('CCNC(=O)c1cc(NC(=O)c2ccccc2)ccc1[Si](C)(C)C', 'inhibition at 0.1 ppm', '=', 26),
  ('CCNC(=O)c1c([Si](C)(C)C)ccc(C=O)c1Cl', 'inhibition at 0.1 ppm', '=', 48),
  ('CCN(CO)C(=O)c1c(C)cccc1[Si](C)(C)C', 'inhibition at 0.1 ppm', '=', 5),
  ('Cc1ccc(F)c([Si](C)(C)C)c1C(=O)N(C)C(C)(C)C', 'inhibition at 0.1 ppm', '<', 0),
  ('CCN(Cc1ccco1)C(=O)c1c(Cl)cccc1[Si](C)(C)C', 'inhibition at 0.1 ppm', '<', 0),
  ('CCNC(=O)c1c(Cl)cc(Cl)cc1[Si](C)(C)C', 'inhibition at 0.1 ppm', '<', 0),
  ('CCN(C(=O)c1c(Cl)cccc1[Si](C)(C)C)c1ccccc1', 'inhibition at 0.1 ppm', '<', 0),
  ('CC(C)N(C(=O)c1c(Cl)cccc1[Si](C)(C)C)C(C)C', 'inhibition at 0.1 ppm', '=', 15),
  ('CCN(C(=O)c1c(Cl)cccc1[Si](C)(C)C)C(OC)C(C)(C)C (stereo not shown)', 'inhibition at 0.1 ppm', '=', 31),
  ('CCN(CC)C(=O)c1cccc(C)c1[Si](C)(C)C', 'inhibition at 0.1 ppm', '=', 20),
  ('CCN(CC)C(=O)c1c(C=O)ccc(F)c1[Si](C)(C)C', 'inhibition at 0.1 ppm', '=', 24),
  ('CCN(COC)C(=O)c1ccccc1[Si](C)(C)C', 'inhibition at 0.1 ppm', '=', 3),
  ('C=C[Si](C)(c1ccccc1)c1cccc(Cl)c1C(=O)NCC (stereo not shown)', 'inhibition at 0.1 ppm', '=', 33),
  ('C[Si](C)(C)c1cccc(Cl)c1C(=O)NC1CC1', 'inhibition at 0.1 ppm', '=', 97),
  ('CCN(CC)C(=O)c1ccc(C)cc1[Si](C)(C)C', 'inhibition at 0.1 ppm', '=', 13),
  ('CN(Cc1ccc(C(C)(C)C)cc1)C(=O)c1c(Cl)cccc1[Si](C)(C)C', 'inhibition at 0.1 ppm', '=', 10);
